SYSTEM_UNDER_TEST: T1, membrane-bound full-length human CD89 (human, UniProt P24071 22-287)
T1 construct: on stably or transiently transfected HEK293F cells; also called FcalphaRI; huCD89
EXPERIMENT_DESCRIPTION: FACS, HEK293F-huCD89, 4C +NaN3, Ab 10 ug/mL then IgA; competitor non-aggr serum IgA
MEASUREMENT_NAME: percent IgA binding

Dear colleague, I am looking for the recorded percent IgA binding of the following binder: mouse anti-human CD89-specific antibody 16D6 (antibody, mouse IgG1, V domains shown, also called 16D16) VH: QVQLQQSGAELMKPGASVKISCKATGYTFSTYWIEWVKQRPGHGLEWIGEILPGSGSANYNEKFKGKATFTADTSSNTAYMQLSSLTFEDSAVYYCAKGFGSPYYYAMDYWGQGTSVTVSS VL: EIVLTQSPALMAASPGEKVTITCSVSSSISSSNLHWYQQKSETSPKPWIYGTSKLASGVPVRFSGSGSGTSYSLTISNMEAEDAATYYCQQWSSFPLTFGGGTKLEIK
0 to 25%
